# Tested on: Heterodera schachtii second-stage juveniles (J2)
# METHOD_DESCRIPTION: Motility on WMicrotracker ONE
# Type: in vivo
# CONDITIONS: 100 µM; 48 h

{"MOLECULE": "CC(C)c1ccc(-c2ccc3[nH]ccc3c2)cc1 [i-17]", "average activity counts": 158}
{"MOLECULE": "CCOc1cc(-c2ccc3[nH]ccc3c2)ccc1Cl [i-25]", "average activity counts": 195}
{"MOLECULE": "Fc1ccc(-c2ccc3[nH]ccc3c2)cc1 [i-20]", "average activity counts": 4}
{"MOLECULE": "CCOc1cccc(-c2ccc3[nH]ccc3c2)c1 [i-9]", "average activity counts": 202}
{"MOLECULE": "FC(F)(F)Oc1ccc(-c2ccc3[nH]ccc3c2)cc1 [i-21]", "average activity counts": 150}
{"MOLECULE": "CCCOc1ccc(-c2ccc3[nH]ccc3c2)cc1 [i-13]", "average activity counts": 144}
{"MOLECULE": "CC(C)Oc1cccc(-c2ccc3[nH]ccc3c2)c1 [i-15]", "average activity counts": 212}
{"MOLECULE": "Clc1ccc(-c2ccc3[nH]ccc3c2)cc1 [i-19]", "average activity counts": 121}
{"MOLECULE": "CCCOc1cccc(-c2ccc3[nH]ccc3c2)c1 [i-12]", "average activity counts": 166}
{"MOLECULE": "CC(C)Oc1cc(-c2ccc3[nH]ccc3c2)ccc1Cl [i-27]", "average activity counts": 161}

---

Overview of recorded Average viability (signal intensity relative to control) for various compounds
# Tested on: human keratinocytes (HaCaT)
# METHOD_DESCRIPTION: Resazurin assay, 3-day treatment
# Type: cell-based
# CONDITIONS: 20 µM
PARAMETER: Average viability (signal intensity relative to control)

{"CHEMICAL_STRUCTURE": "CC(C)c1ccc(-c2ccc3[nH]ccc3c2)cc1", "RESULT": 0.99}
{"CHEMICAL_STRUCTURE": "Fc1ccc(-c2ccc3[nH]ccc3c2)cc1", "RESULT": 0.99}
{"CHEMICAL_STRUCTURE": "CCCOc1ccc(-c2ccc3[nH]ccc3c2)cc1", "RESULT": 0.98}
{"CHEMICAL_STRUCTURE": "CCOc1cc(-c2ccc3[nH]ccc3c2)ccc1Cl", "RESULT": 0.88}
{"CHEMICAL_STRUCTURE": "CCCOc1cccc(-c2ccc3[nH]ccc3c2)c1", "RESULT": 1.09}
{"CHEMICAL_STRUCTURE": "CC(C)Oc1cc(-c2ccc3[nH]ccc3c2)ccc1Cl", "RESULT": 0.6}
{"CHEMICAL_STRUCTURE": "Oc1cccc(-c2ccc3[nH]ccc3c2)c1", "RESULT": 1}
{"CHEMICAL_STRUCTURE": "CCOc1cccc(-c2ccc3[nH]ccc3c2)c1", "RESULT": 1.01}
{"CHEMICAL_STRUCTURE": "CC(C)Oc1cccc(-c2ccc3[nH]ccc3c2)c1", "RESULT": 1.04}
{"CHEMICAL_STRUCTURE": "FC(F)(F)Oc1ccc(-c2ccc3[nH]ccc3c2)cc1", "RESULT": 0.96}
{"CHEMICAL_STRUCTURE": "Clc1ccc(-c2ccc3[nH]ccc3c2)cc1", "RESULT": 1.02}
